Would you mind telling me the reported cytotoxicity at 10 µM of each entry?
- ASSAY PROTOCOL: Toxicity liver stage against HepG2, at 10uM
- Assay type: cell-based
- Parameters: test concentration 10 uM, cell line HepG2-A16-CD81EGFP
- ASSAY CONDITIONS: human, HepG2-A16-CD81EGFP cells; read-out: INHIBITION
Kindly answer with a numeric value in %, unit omitted.

Consider the compound shown here: `O=C1[C@H]2CN(c3ncc(F)cn3)C[C@H]2CN1CC1CC1` What is its recorded cytotoxicity at 10 µM? 6.19

What does the record list as cytotoxicity at 10 µM for `Cc1ccc(C(=O)N2CCCN(Cc3cscn3)CC2)o1` ? -10.6

So what's the measured cytotoxicity at 10 µM for this one? NC(=O)C(NCc1ccc(Cl)s1)c1ccccc1 (stereo not given) 2.8

Given the compound `NCc1cnn(-c2ccccc2C(=O)NCc2ccccn2)c1` , what is its reported cytotoxicity at 10 µM? -19.9

Recorded cytotoxicity at 10 µM for N#Cc1cccc(NC2CC(=O)N(C3Cc4ccccc4C3)C2)n1 (stereo not given) , please? -141

What does the data say about its cytotoxicity at 10 µM? Entry: Cc1ccc(CC(=O)N2CCCC(n3nc(C)cc3C)C2)cn1 (stereo not given) -8.54

Any idea what cytotoxicity at 10 µM was measured for `O=C(CCCNc1ncccn1)Nc1cc(C(F)(F)F)c[nH]c1=O` ? -1.34

Entry CC1COCCN1C(=O)NCCCn1ccnc1 (stereo not given) : reported cytotoxicity at 10 µM = ? -44.9

Any idea what its cytotoxicity at 10 µM is? The compound is `NC(=O)c1nc(-c2cccc(Cl)c2)oc1N` 2.69

Any idea what cytotoxicity at 10 µM was measured for CCCc1cc(C(=O)NC2CCCCNC2=O)[nH]n1 (stereo not given) ? 0.828

###

- ASSAY PROTOCOL: Toxicity liver stage against HepG2, at 10uM
- Format: cell-based
- Set-up: test concentration 10 uM, cell line HepG2-A16-CD81EGFP
- ASSAY CONDITIONS: human, HepG2-A16-CD81EGFP cells; read-out: INHIBITION
Give measured cytotoxicity at 10 µM for each item. Keep answers brief.
Supply the numeric figure in %, leaving out any unit text.

May I ask what cytotoxicity at 10 µM has been recorded for `COc1nc2c(cc1C(=O)NCCCc1nnc(N)s1)CCC2` ? 4.37

What does the data say about its cytotoxicity at 10 µM? Entry: O=C(CCn1cccn1)N1CCC(C2CCN(c3ncccn3)CC2)C1 (stereo not given) 5.33

I am curious: what cytotoxicity at 10 µM value has been reported for COCC1CCN(S(=O)(=O)c2ccc(C(=O)NCC(F)F)cc2)C1 (stereo not given) ? 6.95

Sample CN(C)CC1(O)CCCN(C(=O)Cn2nc3ccccc3n2)CC1 (stereo not given) — what was its cytotoxicity at 10 µM? -8.14

Requested read-out: cytotoxicity at 10 µM. Entry: CCn1cc2c(n1)C(COCC1CC1)CN(c1ccc(C)nn1)C2 (stereo not given) 12.8

Entry under review: `Cc1noc([C@@]23CCO[C@@H]2CCN(C(=O)c2cc(C)on2)C3)n1` . Reported cytotoxicity at 10 µM? 10.9

I have this molecule here, Cc1nc(C)n(CC2CCCN(c3ncnc4c3CCC4)C2)n1 (stereo not given) , and I need its recorded cytotoxicity at 10 µM. 30.5

Returns the measured cytotoxicity at 10 µM for the input molecule. Input: `Cc1ccc(C(=O)N2CCCN(C)c3ccc(F)cc32)o1` -5.26

GET /values?readout=cytotoxicity at 10 µM&item= CC(NC(=O)CCC1CCCCC1)c1nnc2n1CCC2 (stereo not given) -27.1

Dear colleague, I am looking for the recorded cytotoxicity at 10 µM of the following molecule: `c1cnc2c(C3CCN(Cc4ccsc4)CC3)n[nH]c2n1` 1.34

Given CCc1ncc(C(=O)N2CCCC2Cn2cccn2)s1 (stereo not given) , state its recorded cytotoxicity at 10 µM. -9.67

What value of cytotoxicity at 10 µM has been recorded for this entry: Cn1nnc2c1CCN(CC1CC1)C2COCc1ccccc1 (stereo not given) 6.74

Using the record for COc1cccc(CNC(=O)C(c2cccc(F)c2)N2CCOCC2)c1 (stereo not given) , report its cytotoxicity at 10 µM. -6.24

Return reported cytotoxicity at 10 µM; argument: CNC(=O)C1(c2cnccn2)CCCN1C(=O)c1ccn(C)n1 (stereo not given) -5.15

Fill blank: measured cytotoxicity at 10 µM of the molecule `CCC[C@@H]1CN(Cc2ccccc2C#N)C[C@H]1NC(C)=O` is ____. -3.92

###

- ASSAY PROTOCOL: Toxicity liver stage against HepG2, at 10uM
- Assay type: cell-based
- Design: test concentration 10 uM, cell line HepG2-A16-CD81EGFP
- ASSAY CONDITIONS: human, HepG2-A16-CD81EGFP cells; read-out: INHIBITION
Can you tell me cytotoxicity at 10 µM for the items I'm about to list?
The reply should contain only the number, in %.

For the molecule O=C(c1n[nH]c2c1CN(C1CCOC1)CC2)N1CCCC1 (stereo not drawn) , what cytotoxicity at 10 µM is on record? -1.07

Consider the molecule O=S(=O)(c1ccc2c(c1)OCCO2)N1CCC(OCc2ccccn2)C1 (stereo not drawn) and give its measured cytotoxicity at 10 µM. -1.18

Consider the molecule shown here: `CCOc1ncccc1C(=O)N1CC=C(c2ccc(O)cc2)CC1` What is its recorded cytotoxicity at 10 µM? 8.02

###

For each entry below, report its cytotoxicity at 10 µM value.
- ASSAY PROTOCOL: Toxicity liver stage against HepG2, at 10uM
- Format: cell-based
- Design: test concentration 10 uM, cell line HepG2-A16-CD81EGFP
- ASSAY CONDITIONS: human, HepG2-A16-CD81EGFP cells; read-out: INHIBITION
Value expressed in %; do not type the unit.

Suppose we examine the molecule CC(C)N1CCC(NC(=O)NCc2cccnc2)C1 (stereo not drawn) ; what cytotoxicity at 10 µM value has been reported? 7.67

What does the data say about its cytotoxicity at 10 µM? Entry: `COc1ccc(CN2CCC[C@@H]3CN(C(=O)c4ccco4)C[C@@H]32)cc1` 1.44

For the molecule shown here, Cc1cnn(C2CCCN(C(=O)c3c(C)oc(C)c3C)C2)c1 (stereo not drawn) , give the reported cytotoxicity at 10 µM. 2.56

###

- ASSAY PROTOCOL: Toxicity liver stage against HepG2, at 10uM
- Format: cell-based
- Parameters: test concentration 10 uM, cell line HepG2-A16-CD81EGFP
- ASSAY CONDITIONS: human, HepG2-A16-CD81EGFP cells; read-out: INHIBITION
Please respond with reported cytotoxicity at 10 µM for every item in the list.
Field format: number, assumed %, no unit text.

Fill in: cytotoxicity at 10 µM of NC(=O)c1cc(C2CCCN(CCOc3cccc(F)c3)C2)n[nH]1 (stereo not given) is ___ -19.6

Name the recorded cytotoxicity at 10 µM for c1cnc(N2CCC3(CN(CC4CCOC4)C3)C2)nc1 (stereo not given) . -5.77

Need cytotoxicity at 10 µM of `Cc1cc(SC(C)(C)C)ccc1NC(=O)CNC(N)=O` , thanks. 7.94

// query cytotoxicity at 10 µM value for entry `Cc1nc(CN2CCC(CNC(=O)C3(C)CCCC3)CC2)oc1C` 7.66

Given the molecule CS(=O)(=O)c1ccc(CN2CCCCC2c2ccc(F)cc2)cc1 (stereo not given) , what is its reported cytotoxicity at 10 µM? 6.04

What value of cytotoxicity at 10 µM has been reported for the following molecule? `CCc1nnc2n1CCN(Cc1csc(-c3ccccc3)n1)C2` -6.29

Quick one: cytotoxicity at 10 µM of `CC(=O)N(CCc1ccccc1)CC(=O)NC(C)(C)C#N` ? 8.06

Name the recorded cytotoxicity at 10 µM for CCOCC1CCN(C(=O)Nc2ccc3c(c2)CCCN3C)C1 (stereo not given) . 10.1

Consider the molecule O=C(NCC1CC1)C1CN(C(=O)c2cnccn2)CC12CCOCC2 (stereo not given) and give its measured cytotoxicity at 10 µM. 8.27

// lookup cytotoxicity at 10 µM for `CCc1noc(-c2cccc(C(=O)O)c2)n1` -8.24

###

- ASSAY PROTOCOL: Toxicity liver stage against HepG2, at 10uM
- Assay type: cell-based
- Parameters: test concentration 10 uM, cell line HepG2-A16-CD81EGFP
- ASSAY CONDITIONS: human, HepG2-A16-CD81EGFP cells; read-out: INHIBITION
OUTCOME MEASURE: cytotoxicity at 10 µM (%)
The figure you give is taken to be in %; do not add the unit.

Find the recorded cytotoxicity at 10 µM belonging to `CC(=O)N1CCO[C@@H]2CN(C(=O)c3ccc4ncccc4c3)CC[C@@H]2C1` and report it. 8.22

Look up cytotoxicity at 10 µM for this compound: `O=C(NC1CCCCC1)N1CCC(n2cc3[nH]cccc-3c2=O)CC1` -5.01

Reported cytotoxicity at 10 µM for CC(C)CC(NC(=O)CSCC(N)=O)c1cccs1 (stereo not drawn) : what is it? -0.431

Return reported cytotoxicity at 10 µM; argument: `NC1CCN(c2nccn3c(=O)[nH]nc23)CC1` 3.65

So what's the measured cytotoxicity at 10 µM for this one? Cc1noc(C(C)N2CCN(c3ccc(C#N)cn3)CC2)n1 (stereo not drawn) -0.871

Name the reported cytotoxicity at 10 µM value associated with the compound `CSCCC(=O)N1CCN(CC(C)(C)O)CC1` -5.85

Bench note: what cytotoxicity at 10 µM did O=C(CN1CCCC1CC(=O)c1ccccc1)NCc1ccccn1 (stereo not drawn) show? 1.39

Would you kindly share the measured cytotoxicity at 10 µM for CN1CCOC(CN(C(=O)CC2CCCC2)c2nccs2)C1 (stereo not drawn) ? -3.78

Looking for the measured cytotoxicity at 10 µM of `COC(=O)c1cc(C2CC2)nc2c(C#N)cnn12` , can you help? 14

Dear colleague, I am looking for the recorded cytotoxicity at 10 µM of the following compound: CN(CC1COc2ccccc2O1)C(=O)CCn1cncn1 (stereo not drawn) -7.36

Quick one: cytotoxicity at 10 µM for `Cc1nc2c(Nc3ccc(C#N)cc3)nc(N)nc2n1C` ? 1.88

Name the recorded cytotoxicity at 10 µM for CC(C)N1CCCC(CN(C)c2ccc(Cn3ccnc3)cn2)C1 (stereo not drawn) . -127

Which cytotoxicity at 10 µM reading was recorded for the compound Cc1csc(CNC(=O)NC2CCCc3c2cnn3CCO)n1 (stereo not drawn) ? 13.7

Item under review: `CCc1nc(CN2CCCN(C(=O)COC)CC2)cs1` . Reported cytotoxicity at 10 µM? -18.9

Could you tell me which cytotoxicity at 10 µM is on file for `Cn1cc(CN2CCC(CCC(=O)Nc3ccccc3Cl)CC2)cn1` ? -2.98

Need cytotoxicity at 10 µM of c1cncc(NCCNC2CCCNC2)c1 (stereo not drawn) , thanks. -4.5

Recorded cytotoxicity at 10 µM for `Cc1noc(C)c1CS(=O)(=O)CC(=O)NCCc1ccccc1` , please? -5.83

What value of measured cytotoxicity at 10 µM is listed for CN(C)Cc1cnc(C2CCN(C(=O)c3ccccc3F)C2)[nH]1 (stereo not drawn) ? 0.578

Find the recorded cytotoxicity at 10 µM belonging to CCC(C)CS(=O)(=O)NCCc1csc(N2CCCC2)n1 (stereo not drawn) and report it. 1.28

What value of measured cytotoxicity at 10 µM is listed for CC(C)CCN1CCNC(=O)C1CC(=O)NCCc1cc(O)ncn1 (stereo not drawn) ? -0.806

GET /values?readout=cytotoxicity at 10 µM&item= `CC(C)Cc1noc(CN(C)C(=O)CCNC(=O)c2ccccc2F)n1` -9.22

// cytotoxicity at 10 µM lookup, key: `N[C@@H]1c2ccccc2C2(CCN(c3cc(C(F)(F)F)ccn3)CC2)[C@H]1O` 0.106

Report cytotoxicity at 10 µM for CS(=O)(=O)c1ccc(CN2CCCC3(C2)C(=O)Nc2ccccc23)cc1 (stereo not drawn) please. -1.3
